# Type: physicochemical
# CONDITION DESCRIPTION: lipid nanoparticle of the ionizable lipid with mRNA, Table 1
MEASURED QUANTITY: PDI
One number for each entry.

CCCCCCOCC(COCCCCCC)OC(=O)CCCCCCCN(CCCO)CCCCCCCCCCCC(=O)OC(COCC)COCC
0.064
CCCCC/C=C/C/C=C/CCCCCCCCN(CCCO)CCCCCCCC(=O)OCC(COCCCCCC)(COCCCCCC)COCCCCCC
0.098
CCCCCCCCCCCOC(=O)CCCCCN(CCO)CCCCCCCC(=O)OCC(COCCCCCC)(COCCCCCC)COCCCCCC
0.054
CCCCCCOCC(COCCCCCC)OC(=O)CCCCCCCN(CCCCCCCC(=O)OC(COCCCCCC)COCCCCCC)CCCNc1c(NCCCNc2c(NCCCN(CCCCCCCC(=O)OC(COCCCCCC)COCCCCCC)CCCCCCCC(=O)OC(COCCCCCC)COCCCCCC)c(=O)c2=O)c(=O)c1=O
0.28

Below is a list of compounds. For each, state its recorded PDI.
1. CCCCCCOCC(COCCCCCC)NC(=O)CCCCCCCN(CCCO)CCCCCCCC(=O)OC(COCCCCCC)COCCCCCC
2. CCCCC/C=C/C/C=C/CCCCCCCCN(CCO)CCCCCCCC(=O)OCC(COCCCCCC)(COCCCCCC)COCCCCCC
3. CCCCCCCCCCCOC(=O)CCCCCN(CCCO)CCCCCC(=O)OCCCCCCCCCCC
4. CCCCCCOCC(COCCCCCC)OC(=O)CCCCCCCN(CCCCCCCC(=O)OC(COCCCCCC)COCCCCCC)CCCNc1c(NC)c(=O)c1=O
5. CCCCCCOCC(COCCCCCC)OC(=O)CCCCCCCN(CCCCCCCC(=O)OC(COCCCCCC)COCCCCCC)CCCNc1c(NCCCNc2c(NC)c(=O)c2=O)c(=O)c1=O
6. CCCCCCOCC(COCCCCCC)OC(=O)CCCCCCCN(C)CCCNc1c(NCCCNc2c(NCCCN(C)CCCCCCCC(=O)OC(COCCCCCC)COCCCCCC)c(=O)c2=O)c(=O)c1=O
7. CCCCCCCCC(CCCCCCCC)OC(=O)CCCCCCCN(CCO)CCCCCCCC(=O)OC(CCCCCCCC)CCCCCCCC [A2, reference compound]

Result ::
0.094
0.121
0.190
0.13
0.05
0.07
0.100
